Target: UniProt Q9NS86
Sequence (Q9NS86 1-450): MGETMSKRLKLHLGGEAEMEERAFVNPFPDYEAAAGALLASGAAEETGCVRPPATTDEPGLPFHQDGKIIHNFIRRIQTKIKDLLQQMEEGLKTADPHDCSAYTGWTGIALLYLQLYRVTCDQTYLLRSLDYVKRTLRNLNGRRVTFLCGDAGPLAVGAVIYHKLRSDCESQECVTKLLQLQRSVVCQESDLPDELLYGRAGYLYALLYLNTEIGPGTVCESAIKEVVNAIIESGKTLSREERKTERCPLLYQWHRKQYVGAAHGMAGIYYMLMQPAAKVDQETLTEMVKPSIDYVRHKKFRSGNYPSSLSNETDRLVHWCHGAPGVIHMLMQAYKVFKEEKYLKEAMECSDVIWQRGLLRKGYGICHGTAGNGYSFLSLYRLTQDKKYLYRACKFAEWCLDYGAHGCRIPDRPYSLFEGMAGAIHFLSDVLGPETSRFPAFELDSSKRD
Assay: Surface plasmon resonance (SPR) binding to LANCL2
Conditions: Tables 1A and 1B; read-out: SPR Affinity to LANCL2 (Kd)
endpoint: Kd (µM)

Here is how some molecules turned out for Kd.
structure as smiles: O=C1CC=C(/C=C/c2ccc(C(=O)O)o2)CC1
endpoint: Kd
unit spec: µM
measured value: 11.7

structure as smiles: O=C1CCC(O)(/C=C/c2ccc(C(=O)O)o2)CC1
endpoint: Kd
unit spec: µM
measured value: 177

structure as smiles: O=C(c1cccc(-c2nc3ccccc3[nH]2)n1)N1CCN(C(=O)c2cccc(-c3nc4ccccc4[nH]3)n2)CC1
endpoint: Kd
unit spec: µM
measured value: 7.7

1: O=C1CCC(O)(/C=C/c2cc(C(=O)O)ccn2)CC1
2: O=C(c1cccc(-c2nc3ccccc3[nH]2)c1)N1CCN(C(=O)c2cccc(-c3nc4ccccc4[nH]3)c2)CC1
3: O=C(c1cccc(-c2nc3ccccc3[nH]2)n1)N1CCN(C(=O)c2cccc(-c3nc4ccccc4o3)n2)CC1
4: O=C1CCC(O)(/C=C/c2cccc(C(=O)O)c2)CC1
Please list the entries, largest Kd first. Answer by writing out the labels in the requested order. 4, 2, 3, 1
